Sourced from PubChem BioAssay AID1918954

- System: MDA-MB-468 complex spheroids with HUVEC/MSC, viability
- method: Anticancer human tumor MDA-MB-468 cell line growth inhibition;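 note: spheroids exposed to agents for seven days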
- protocolConditions: curve of first compound; second compound 3.16 µM
Consider the cut-off 20 nM. If the recorded IC50 is strictly smaller, the label is YES; if not, the label is NO.

Problem: Consider the molecule CC[C@@]1(O)C(=O)OCc2c1cc1n(c2=O)Cc2cc3c(CN(C)C)c(O)ccc3nc2-1 + NC1CC1c1ccc(-c2cccc(O)c2)cc1 . Is its IC50 strictly less than 20 nM?
Result: YES

Problem: Does the reported IC50 of the following molecule sit strictly below 20 nM? CC1(C)CCC(CN2CCN(c3ccc(C(=O)NS(=O)(=O)c4ccc(NCC5CCOCC5)c([N+](=O)[O-])c4)c(Oc4cnc5[nH]ccc5c4)c3)CC2)=C(c2ccc(Cl)cc2)C1 + NC1CCC(NC2CC2c2ccccc2)CC1
Result: NO
